compounds and their reported cell viability
# Test system: U2OS
# METHOD_NOTES: cell viability relative to DMSO; higher = less toxic
# CONDITION_SET: 72 h; 10 nM
MEASUREMENT_TYPE: cell viability (%)

- CCCSc1nc(N[C@@H]2C[C@H]2c2ccc(F)c(F)c2)c2nnn([C@@H]3C[C@H](OCCO)[C@@H](O)[C@H]3O)c2n1 [ticagrelor]: 96.3
- NCCOB(c1ccccc1)c1ccccc1 [2-APB]: 95.6
- C=CC(=O)Nc1cc2c(Nc3ccc(F)c(Cl)c3)ncnc2cc1OCCCN1CCOCC1 [canertinib]: 98.5
- N#Cc1cc(NC(=O)C(=O)O)c(Cl)c(NC(=O)C(=O)O)c1 [lodoxamide]: 102
- NCC(=O)N1C[C@H](NC(=O)c2ccccc2)C[C@H]1C(=O)O [danegaptide]: 93.6
- COc1cc2cc(c1Cl)N(C)C(=O)C[C@H](OC(=O)C(C)C)[C@]1(C)O[C@@H]1[C@H](C)[C@@H]1C[C@@](O)(NC(=O)O1)[C@H](OC)/C=C/C=C(\C)C2 [ansamitocin-p-3]: 29.1
- CN1C(=O)CC(c2ccccc2)C1=O (centres undefined) [phensuximide]: 99.8
- Nc1nc2ccc(Cl)cc2c2nc(-c3ccco3)nn12: 100
- NC(=O)CN1CC(O)CC1=O (centres undefined) [oxiracetam]: 103
